experimental-system: T1, endogenous LILRB2 on human myeloid cells / primary monocytes (human, UniProt Q8N423 22-597)
T1 construct: whole, on cells; also called cells expressing endogenous LILRB2
T1 sequence (Q8N423 22-597): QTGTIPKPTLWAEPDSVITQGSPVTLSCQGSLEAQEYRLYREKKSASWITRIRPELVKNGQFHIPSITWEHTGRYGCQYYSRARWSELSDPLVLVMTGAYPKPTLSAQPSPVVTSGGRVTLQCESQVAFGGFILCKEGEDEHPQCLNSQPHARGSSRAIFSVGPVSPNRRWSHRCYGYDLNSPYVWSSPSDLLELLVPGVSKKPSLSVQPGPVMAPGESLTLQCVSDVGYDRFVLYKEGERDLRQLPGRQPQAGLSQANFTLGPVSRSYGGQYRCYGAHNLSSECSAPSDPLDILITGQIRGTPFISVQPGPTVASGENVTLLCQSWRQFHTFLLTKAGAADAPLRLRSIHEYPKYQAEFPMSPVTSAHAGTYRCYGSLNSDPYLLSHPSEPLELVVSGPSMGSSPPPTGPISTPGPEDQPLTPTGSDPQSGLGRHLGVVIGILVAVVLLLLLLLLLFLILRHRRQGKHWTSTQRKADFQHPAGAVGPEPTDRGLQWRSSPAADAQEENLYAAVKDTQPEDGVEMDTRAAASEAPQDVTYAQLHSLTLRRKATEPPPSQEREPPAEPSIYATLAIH
measurement-notes: flow cytometry, CD14+CD16- monocytes, AF647-conjugated antibody
value-type: EC50 (µg/mL)
Your answer should be a plain number; it is taken to be in µg/mL.

Enquiry: Complete the entry with EC50 for B2-15 (antibody, V domains shown, also called B-15; B2-15_HC) VH: EVQLVQSGAEVKKSGASVKVSCKSSGYTFTNYGISWVRQAPGQGLEWMGWISGDAGDTKFAQKFQGRVTMTTDTSTTTTYMELRSLRSDDTAVYYCARDGEYIPMFRGFDNYYGLDVWGQGTLVSVSS VL: QSVLTQPPSASATPGQRVTISCSGRNANIGSNPVNWYQQLPGTAPRLVMYSNNQRPSGVPDRFSGSKSGTSASLAISGLQSEDEADYYCEGWDDSLNGYVFGTGTKVTVL
Return: 0.056

Enquiry: Give EC50 for B2-16 (antibody, V domains shown, also called B2-16_HC; B2-16_LC) VH: QVQLVQSGAEVKKPGSSVKVSCKASGGTFSSYAISWVRQAPGQGLEWMGGIIPIFGTANYAQKFQGRVTITADESTSTAYMELSSLRSEDTAVYYCASGIIPDNPYGMDVWGQGTMVSVSS VL: DIVMTQSPLSLPVTLGQPASISCTSSQSLVYSDGNTYLNWFHQRPGQSPRRLFYKVSNRASGVPDRFSGSGSGTDFTLKISRVEAEDLGVYYCMQGTHWPVTFGQGTRLEIK
Return: 0.547

Enquiry: Give EC50 for the following binder: B2-7 (antibody, V domains shown, also called B2-7_HC; B2-7_LC) VH: EVQLVESGGGVVQPGRSLRLSCAASGFTISSYGMHWVRQAPGKGLEWVAVISYDGSNKYYADSVKGRFTISRDNSKNTLYLQMNSLRVEDTAVYYCAKDLLLRYFDWSPKYYYNGMDVWGQGTMVTVSS VL: QSVLTQPPSVSVAPGKTARITCGGNNIGSKSVHWYQQKPGQAPVLVVYDDSDRPSGIPERFSGSNSGNTATLTISRVEAGDEADYYCQVWDSSSDHPGVFGTGTKVTVL
Return: 0.332
